Tested on: Vero cells
Assay: Cytotoxicity test using the MTT assay
Assay type: cell-based
Settings: read-out: Vero CC50, 2-day compound exposure
MEASURED_PROPERTY: CC50 (µM)

>>> df
                                   compound      system  measured_property  unit_abbrev  observed_value
0  CN(C)CCNC(=O)/C=C/[C@H](Cc1ccccc1)Nc1ccnc2cc(Cl)ccc12 [SKM13-2HCl]  Vero cells               CC50           µM            55.2
